Experiment: Selectivity as the ratio of pA2 value against alpha 1 receptor to that of alpha-2 receptor.
quantity: Selectivity ratio

Worked set:
molecule	Selectivity ratio
Cl.O=C(c1ccco1)N1CCN(CC2COc3ccccc3O2)CC1 (centres undefined)	0.59
COc1cc2nc(N(C)CCN(C)C(=O)c3ccco3)nc(N)c2cc1OC.Cl	65
COc1cccc(OC)c1OCCNCC1COc2ccccc2O1 (centres undefined)	347
COc1cc2nc(N(C)CCOc3c(OC)cccc3OC)nc(N)c2cc1OC.Cl	89

1: COc1cccc(OC)c1OCCN1CCN(C(=O)c2ccco2)CC1.Cl
2: COc1cc2nc(NCC3COc4ccccc4O3)nc(N)c2cc1OC.Cl (centres undefined)
3: COc1cc2nc(NCCOc3c(OC)cccc3OC)nc(N)c2cc1OC.Cl
4: Cl.O=C(NCCNCC1COc2ccccc2O1)c1ccco1 (centres undefined)
5: COc1cc2nc(NCCNC(=O)c3ccco3)nc(N)c2cc1OC.Cl
Query: hey, can you rank those molecules up there by Selectivity ratio? biggest number first please Output spec: a listing of the labels in the requested order.
Result: 5, 3, 1, 4, 2

---

Target: Adrenergic receptor alpha-1 (Rattus norvegicus, UniProt P15823+P23944+P43140)
Assay: Alpha-1-Adrenoceptor blocking activity as antagonism of (-)-norepinephrine induced contractions of epididymal vas deferens
Type: functional, tissue-based
quantity: pA2

compound	measured.value
COc1cc2nc(N(C)CCOc3c(OC)cccc3OC)nc(N)c2cc1OC.Cl	7.86
COc1cc2nc(NCC3COc4ccccc4O3)nc(N)c2cc1OC.Cl (configuration not stated)	7.22
COc1cccc(OC)c1OCCN1CCN(C(=O)c2ccco2)CC1.Cl	6.45
COc1cc2nc(NCCOc3c(OC)cccc3OC)nc(N)c2cc1OC.Cl	7.88
COc1cc2nc(NCCNC(=O)c3ccco3)nc(N)c2cc1OC.Cl	8.81
COc1cc2nc(N(C)CCN(C)C(=O)c3ccco3)nc(N)c2cc1OC.Cl	7.18
Cl.O=C(NCCNCC1COc2ccccc2O1)c1ccco1 (configuration not stated)	7.19

The measured values listed here are drawn from ChEMBL document CHEMBL1123052.
